Some molecules, each annotated with its measured absorption maximum.
RUN DESCRIPTION: solvent given as SMILES
TEST PARAMETERS: in CCCCCC
MEASURE: absorption maximum

MOLECULE: C/C(=N\Nc1ccc(C#N)cc1)c1cccc(/C(C)=N/Nc2ccc(C#N)cc2)c1
ENDPOINT VALUE: 359 nm
//
MOLECULE: O=Cc1ccc(-c2ccc(C3=CCC(c4ccccc4)CC3)s2)s1 (configuration not stated)
ENDPOINT VALUE: 380 nm
//
MOLECULE: COc1ccc(-c2c3ccccc3c3n2[B-](F)(F)[N+]2=Cc4c5ccccc5c(-c5ccc(OC)cc5)n4[B-](F)(F)[N+]2=C3)cc1
ENDPOINT VALUE: 573 nm
//
MOLECULE: COC(C)CC1=N/C(=C\c2cccc(N(C)C)c2)C(=O)N1C (configuration not stated)
ENDPOINT VALUE: 354 nm
//
MOLECULE: CC(C)[Si](C#Cc1c2nc3ccccc3nc2c(C#C[Si](C(C)C)(C(C)C)C(C)C)c2nc3c(ccc4ccccc43)nc12)(C(C)C)C(C)C
ENDPOINT VALUE: 649 nm
//
MOLECULE: c1ccc(N(c2ccccc2)c2ccc(-c3cccc4nc5ccccc5cc34)cc2)cc1
ENDPOINT VALUE: 386 nm
//
MOLECULE: CN(C)c1ccc(/C=C/C=C/c2ccc(C#N)cc2)cc1
ENDPOINT VALUE: 400 nm
//
MOLECULE: COc1ccc(-n2cccc2)cc1
ENDPOINT VALUE: 252 nm
//
MOLECULE: CC(C)(C)c1ccc(-c2sc3c(-c4ccc(C(C)(C)C)cc4)c4n(c3c2-c2ccc(C(C)(C)C)cc2)[B-](F)(F)[N+]2=Cc3c(-c5ccc(C(C)(C)C)cc5)c5sc(-c6ccc(C(C)(C)C)cc6)c(-c6ccc(C(C)(C)C)cc6)c5n3[B-](F)(F)[N+]2=C4)cc1
ENDPOINT VALUE: 591 nm
//
MOLECULE: CCN(CC)/C(C)=N\c1ccc2c3c(cccc13)C(=O)c1ccccc1-2
ENDPOINT VALUE: 444 nm
//
MOLECULE: CCOC(=O)COc1ccc(/C=C/c2cc(C)c3n2[B-](F)(F)[N+]2=C(c4[nH]c(C)cc4C)c4ccccc4C2=C3)cc1
ENDPOINT VALUE: 679 nm
//
MOLECULE: O=C1C=C(Nc2ccccc2F)C(=O)c2ccccc21
ENDPOINT VALUE: 442 nm
//
MOLECULE: CC1=N/C(=C\c2cc(N(C)C)ccc2C#N)C(=O)N1C
ENDPOINT VALUE: 359 nm
//
MOLECULE: CCCCCCCCCCCCCCCC[n+]1ccc(/C=C/c2ccc(N(C)C)cc2)cc1
ENDPOINT VALUE: 454.6 nm
//
MOLECULE: CCC1=C(C)C2=Cc3ccccc3B(O)N2C1=O
ENDPOINT VALUE: 378 nm
//
MOLECULE: CC(C)(C)c1cc2ccc3cc(C(C)(C)C)cc4c3c2c(c1)c(=O)n1c4nc2c3cc(C(C)(C)C)cc4ccc5cc(C(C)(C)C)cc(c5c43)c21
ENDPOINT VALUE: 399 nm
//
MOLECULE: Cc1cccc(C)c1Nc1ccc(/C=C/c2cccnc2)cc1
ENDPOINT VALUE: 346 nm
//
MOLECULE: CCCCCCCCN1c2ccc(C#Cc3ccc(OC)cc3)cc2Sc2cc(C=O)ccc21
ENDPOINT VALUE: 374 nm
//
MOLECULE: CC(C)(C)c1ccc2ccc3c(C(C)(C)C)ccc4ccc1c2c43
ENDPOINT VALUE: 346 nm
//
MOLECULE: O=C(O)c1ccc2ccc3cccc4ccc1c2c34
ENDPOINT VALUE: 381 nm
//
MOLECULE: COC1=[N+]2C(=C(c3ccccc3)c3cc(SC#N)c(OC)n3[B-]2(F)F)C=C1SC#N
ENDPOINT VALUE: 518 nm
//
MOLECULE: CCCC(=O)c1c2c(c(C(=O)CCC)c3c1OC(CC(=O)OC)(C(=O)OC)O3)OCO2
ENDPOINT VALUE: 413 nm
//
MOLECULE: Nc1ccc(/C=C/c2ccc3ccccc3c2)cc1
ENDPOINT VALUE: 342 nm
//
MOLECULE: COc1ccccc1NC1=CC(=O)c2ccccc2C1=O
ENDPOINT VALUE: 468 nm
//
MOLECULE: CCCCCCC(CCCCCC)N1C(=O)c2cccc3c(-c4ccccc4)ccc(c23)C1=O
ENDPOINT VALUE: 342.2 nm
//
MOLECULE: CC(C)[Si](C#Cc1ccc(C#C[Si](C(C)C)(C(C)C)C(C)C)c2nc3cc4c(cc3nc12)[C@H]1c2ccccc2[C@@H]4c2ccccc21)(C(C)C)C(C)C
ENDPOINT VALUE: 435 nm
//
MOLECULE: O=C1c2cc(F)ccc2-c2cnccc21
ENDPOINT VALUE: 408.61 nm
//
MOLECULE: CCc1c(C)[nH]c(C2=[N+]3C(=Cc4c(C)cc(C)n4[B-]3(F)F)c3ccccc32)c1C
ENDPOINT VALUE: 616 nm
//
MOLECULE: CCC1(CC)c2cc(B(c3c(C)cc(C)cc3C)c3c(C)cc(C)cc3C)ccc2-c2c1c1c(c3c2C(CC)(CC)c2cc(B(c4c(C)cc(C)cc4C)c4c(C)cc(C)cc4C)ccc2-3)C(CC)(CC)c2cc(B(c3c(C)cc(C)cc3C)c3c(C)cc(C)cc3C)ccc2-1
ENDPOINT VALUE: 362 nm
//
MOLECULE: COc1c2ccccc2c(-c2ccccc2)c2ccccc12
ENDPOINT VALUE: 378 nm
//
MOLECULE: COc1ccc(-n2nc(C#N)c(N3CCCC3)n2)cc1
ENDPOINT VALUE: 335 nm
//
MOLECULE: COc1cc(-c2nnc(-c3ccc4ccc5cccc6ccc3c4c56)o2)cc(OC)c1OC
ENDPOINT VALUE: 392 nm
//
MOLECULE: CCC(=O)c1ccc2cc(N(C)C)ccc2c1
ENDPOINT VALUE: 338 nm
//
MOLECULE: CC1=CC(C)=[N+]2C1=C(c1ccc(N3CCOCC3)cc1)c1c(C)cc(C)n1[B-]2(F)F
ENDPOINT VALUE: 498 nm
//
MOLECULE: F[B-]1(F)n2c(ccc2-c2ccccc2)C(C(F)(F)F)=C2C=CC(c3ccccc3)=[N+]21
ENDPOINT VALUE: 592 nm
//
MOLECULE: CCCCCCCCC1(CCCCCCCC)c2cc(C=O)ccc2-c2ccc(/C=C/c3ccc(N(c4ccccc4)c4ccccc4)cc3)cc21
ENDPOINT VALUE: 405 nm
//
MOLECULE: O=C1OC(=O)c2ccc(N(c3ccccc3)c3c4ccccc4cc4ccccc34)c3cccc1c23
ENDPOINT VALUE: 440 nm
